Assay: Differential scanning fluorimetry (DSF), apparent Tm of YggS forms
Type: physicochemical
Conditions: 2 μM protein + 300 μM PLP
Protocol: Differential scanning fluorimetry (DSF) assays were performed on a Real Time PCR Instrument (CFX Connect Real Time PCR system, Bio‐Rad, Hercules, CA). […] Fluorescence was measured from 25°C to 95°C in 0.4°C/30 s steps (excitation 450–490 nm; detection 560–580 nm). […] Denaturation profiles were analyzed as described in Nardella et al.[40]
OBSERVABLE: T m (°C) Apo + 300 μM PLP

>>> reported("ΔK233/K234: E. coli YggS variant lacking the last two C-terminal residues K233 and K234 (protein, left off: His-tag, N-terminal, state not stated) MNDIAHNLAQVRDKISAAATRCGRSPEEITLLAVSKTKPASAIAEAIDAGQRQFGENYVQEGVDKIRHFQELGVTGLEWHFIGPLQSNKSRLVAEHFDWCHTIDRLRIATRLNDQRPAELPPLNVLIQINISDENSKSGIQLAELDELAAAVAELPRLRLRGLMAIPAPESEYVRQFEVARQMAVAFAGLKTRYPHIDTLSLGMSDDMEAAIAAGSTMVRIGTAIFGARDYS")
"84.0 ± 0.4 °C"
